Exercise: for every item that follows, state its recorded log10 of EC50.
test: Binding affinity to BTN3A1 in human PBMC-derived Vgamma9/Vdelta2 T cells assessed as induction of Vgamma9Vdelta2 T cells proliferation incubated for 3 days by gamma delta TCR/PE-CD3+ antibody staining based FACS analysis
Heads up, the numbers here are log10 of EC50 in nM units.

Per the records, this compound ( CCOC(=O)CNP(=O)(CC/C=C(C)/C=N/O)Oc1ccccc1 (stereo not given) ) has log10 of EC50 equal to 2.90

Per the records, this compound ( C/C(C=O)=C\CCP(=O)(OCOC(=O)C(C)(C)C)Oc1ccc2ccc(=O)oc2c1 (stereo not given) ) has log10 of EC50 equal to 1.08

Per the records, this compound ( `C/C(C=O)=C\CCP(=O)(OCOC(=O)C(C)(C)C)OCOC(=O)C(C)(C)C` ) has log10 of EC50 equal to 1.67

Per the records, this compound ( C/C(C=O)=C\CCP(=O)(NCC(=O)OC(C)C)Oc1ccccc1 (stereo not given) ) has log10 of EC50 equal to 1.69

Per the records, this compound ( CCOC(=O)CNP(=O)(CC/C=C(\C)C=O)Oc1ccccc1 (stereo not given) ) has log10 of EC50 equal to 1.30

Per the records, this compound ( C/C(=C\CCP(=O)(OCOC(=O)C(C)(C)C)Oc1ccc2ccc(=O)oc2c1)CO (stereo not given) ) has log10 of EC50 equal to 0.90

Per the records, this compound ( COC(=O)CNP(=O)(CC/C=C(\C)C=O)Oc1ccccc1 (stereo not given) ) has log10 of EC50 equal to 1.67

Per the records, this compound ( C/C(C=O)=C\CCP(=O)(OCOC(=O)C(C)(C)C)Oc1ccc2ccccc2c1 (stereo not given) ) has log10 of EC50 equal to 0.66
